Assay Notes: qHTS of pediatric cancer cell lines to identify multiple opportunities for drug repurposing: Primary screen for SK-N-SH cells (AID 1347098); also: nearly all actives have a fitted effect of over 65% in size
Run Parameters: SK-N-SH viability, CellTiter-Glo luminescence, 48 h; series mostly up to 57 µM
Experimental: Drug repurposing or repositioning has been offered as a strategy for drug development in oncology programs. […] [1] Shen, M et al. Quantitative high-throughput phenotypic screening of pediatric cancer cell lines identifies multiple opportunities for drug repurposing. […] Cells were assayed in growth media at a density of 500-1,000 cells/well. […] After a 15 min incubation at room temperature, samples were analyzed for luminescence intensity using a ViewLux High-throughput CCD imager equipped with clear filters.
Inconclusive results are not listed. Active and inactive are the calls of the source. Calls follow the shape of the dose curve; as a rule, active = well fitted cell-killing curve with a large enough effect; inconclusive = small, poorly fitted or top-dose-only effect; inactive = no such curve, though single readings can be large or run the other way.
Answer with one of the outcomes given here: true (active), false (inactive)

Compound | Group
COc1cc2c(Nc3ccc(Cl)c(Cl)c3F)ncnc2cc1OCC1C[C@@H]2CN(C)C[C@H]2C1 | true

Please state the recorded outcome for this compound: `CC(C)c1cc(C(C)C)c(CC(=O)NS(=O)(=O)Oc2c(C(C)C)cccc2C(C)C)c(C(C)C)c1` false

Same read-out for `C[C@@]12C[C@@]3(O)O[C@@H](O1)[C@]1(COC(=O)c4ccccc4)[C@@H]3C[C@@]12O[C@@H]1O[C@H](CO)[C@@H](O)[C@H](O)[C@@H]1O` ? false

Same read-out for `NC(=O)c1ncn([C@@H]2O[C@H](CO)[C@@H](O)[C@@H]2O)c1O` ? false

Same read-out for `Cn1cnc(=N)c2[nH]cnc21` ? true

Same read-out for C[C@]12CCC(=O)C=C1[C@@H]1CC1[C@H]1[C@H]3[C@@H]4C[C@H]4[C@@]4(CCC(=O)O4)[C@@]3(C)CC[C@H]12 (stereo partly drawn) ? false

Same read-out for `CCc1ccc(C(=O)Nc2cc(CN3CCN(C)CC3)cc(C(F)(F)F)c2)cc1C#Cc1cnc2ccnn2c1` ? true

Same read-out for `COC[C@H](NC(=O)c1cnc(C)s1)C(=O)N[C@@H](COC)C(=O)N[C@@H](Cc1ccccc1)C(=O)[C@@]1(C)CO1` ? true

###

Assay Notes: NS1 protein of Zika virus - qHTS assay to identify small molecule inhibitors in human HEK 293 cells (AID 1347053); also: nearly all actives have a fitted effect of over 55% in size; also: potency is read from the fitted curve at half-maximal effect
Run Parameters: HEK293 ZIKV MR766 infection, NS1 TR-FRET, 24 h; series mostly up to 46.1 µM
Results filed as inconclusive are left out. Activity calls are given as the source filed them. The call rests on the fitted dose curve; in most records, active means well fitted inhibition curve with a large enough effect; inconclusive means small, poorly fitted or top-dose-only effect; inactive means no such curve, though single readings can be large or run the other way.
Quantity Name: Potency

Compound | Potency
O=C1NC(O)CCN1[C@@H]1O[C@H](CO)[C@H](O)[C@H]1O (some centres undefined) | inactive
C=Cc1c(C)c2cc3nc(cc4[nH]c(cc5nc(cc1[nH]2)C(C)=C5CCC(=O)O)c(CCC(=O)OC)c4C)[C@@]1(C)C3=CC=C(C(=O)OC)[C@H]1C(=O)OC | inactive
CN1C(C(=O)Nc2ccccn2)=C(O)c2sc(Cl)cc2S1(=O)=O | inactive
c1ccc2c(Oc3nc(Nc4ccc(N5CCOCC5)cc4)c4ncn(C5CCCCC5)c4n3)cccc2c1 | inactive
CC(C)(O)CC[C@@H](O)[C@](C)(O)[C@H]1CC[C@@]2(O)C3=CC(=O)[C@@H]4C[C@@H](O)[C@@H](O)C[C@]4(C)[C@@H]3CC[C@]12C | inactive
CO[C@@H]1[C@@H](O)[C@H](O)[C@@H](n2c3c(Cl)cccc3c3c4c(c5c6cccc(Cl)c6[nH]c5c32)C(=O)NC4=O)O[C@@H]1CO | 0.118 µM (active)
CN(C)c1ccc2cc(C(=O)N[C@@H](CCCN=C(N)CCl)C(=O)NCc3ccccc3)ccc2c1 | inactive
C[C@H]1C[C@H]2[C@@H]3CCC4=CC(=O)C=C[C@]4(C)[C@@H]3C(=O)C[C@]2(C)[C@@]1(O)C(=O)CO | inactive
O=C1c2cccc(O)c2C(=O)c2c(O)cc(CO)cc21 | inactive
C=CC(=O)Nc1ccc2ncnc(Nc3ccc(OCc4cccc(F)c4)c(Cl)c3)c2c1 | 10.5 µM (active)

Using the record for `N#CNC(=NCCCCCCOc1ccc(Cl)cc1)Nc1ccncc1` , report its Potency. inactive
